Molecular target: 14-3-3γ (Homo sapiens, UniProt P61981)
Construct: made in house; host or cells: E. coli NiCo21 (DE3)
Sequence (P61981 1-247): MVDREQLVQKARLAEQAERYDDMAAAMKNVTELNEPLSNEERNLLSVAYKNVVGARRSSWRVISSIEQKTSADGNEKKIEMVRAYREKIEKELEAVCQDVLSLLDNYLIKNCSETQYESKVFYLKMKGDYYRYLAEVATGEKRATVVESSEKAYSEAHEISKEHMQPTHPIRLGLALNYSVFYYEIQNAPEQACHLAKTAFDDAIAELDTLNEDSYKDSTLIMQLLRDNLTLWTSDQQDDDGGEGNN
Assay: Fluorescence anisotropy (FA) binary binding study: 14-3-3 titrated to fluorescein-labelled peptide
Conditions: Table S4; ΔG of peptide minus ΔG of 1, FA; mean of n = 3
Where a SMILES comes first, the peptide text is derived from it. [ ]: non-standard residue; d: D form. ξ: configuration not given here. Phe(4-NO2) = N[C@@H](Cc1ccc([N+](=O)[O-])cc1)C(=O)O; ξAla(4-thiazolyl) = NC(Cc1cscn1)C(=O)O; pS = N[C@@H](COP(=O)(O)O)C(=O)O; β3hS = N[C@@H](CO)CC(=O)O; Nva = CCC[C@H](N)C(=O)O; βAla = NCCC(=O)O
measurement.type: ΔΔG to 1 (kcal/mol)
Field: numeric (kcal/mol). Do not append units.

compound	assay.target	measurement.type	unit.tag	value.observed
CCC[C@H](NC(=O)[C@H](N)CCCCN)C(=O)N[C@@H](Cc1ccc([N+](=O)[O-])cc1)C(=O)NC(Cc1cscn1)C(=O)N[C@@H](COP(=O)(O)O)C(=O)N[C@@H](Cc1ccc([N+](=O)[O-])cc1)C(=O)N[C@@H](CO)CC(=O)NCCC(=O)N[C@@H](Cc1ccccc1)C(=O)N[C@@H](CCCCN)C(N)=O (stereo partly drawn) [5b] (H-[dK][Nva][Phe(4-NO2)][ξAla(4-thiazolyl)][pS][Phe(4-NO2)][β3hS][βAla]FK-NH2; N-terminus and C-terminus assumed)	14-3-3γ (Homo sapiens, UniProt P61981)	ΔΔG to 1	kcal/mol	1.8

Now for a further compound.
The recorded ΔΔG to 1 for entry CCC[C@H](NC(=O)[C@H](N)CCCCN)C(=O)N[C@@H](Cc1ccc([N+](=O)[O-])cc1)C(=O)NC(Cc1cscn1)C(=O)N[C@@H](COP(=O)(O)O)C(=O)N[C@@H](C)C(=O)N[C@@H](CO)CC(=O)NCCC(=O)N[C@@H](Cc1ccc([N+](=O)[O-])cc1)C(=O)N[C@@H](CCCCN)C(N)=O (stereo partly drawn) [4c] (H-[dK][Nva][Phe(4-NO2)][ξAla(4-thiazolyl)][pS]A[β3hS][βAla][Phe(4-NO2)]K-NH2; N-terminus and C-terminus assumed) equals 1.8

====

The reader will find reported Affinity Kd values listed item by item below.
Target: 14-3-3γ (Homo sapiens)
Construct: made in house; host or cells: E. coli NiCo21 (DE3)
Sequence (P61981 1-247): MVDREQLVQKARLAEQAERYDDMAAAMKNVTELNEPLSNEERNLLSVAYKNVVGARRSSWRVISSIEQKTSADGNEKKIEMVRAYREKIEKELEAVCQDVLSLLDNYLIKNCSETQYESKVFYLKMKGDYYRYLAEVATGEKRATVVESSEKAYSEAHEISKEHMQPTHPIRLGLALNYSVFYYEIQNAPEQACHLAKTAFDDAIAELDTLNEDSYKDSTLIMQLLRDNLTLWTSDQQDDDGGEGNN
Experiment: Fluorescence anisotropy (FA) binary binding study: 14-3-3 titrated to fluorescein-labelled peptide
Settings: Table S4, point-mutated peptides; FA, 10 nM FITC-labelled peptide; replicate 2
Where a SMILES comes first, the peptide text is derived from it. [ ]: non-standard residue; d: D form. ξ: configuration not given here. Phe(4-NO2) = N[C@@H](Cc1ccc([N+](=O)[O-])cc1)C(=O)O; ξAla(4-thiazolyl) = NC(Cc1cscn1)C(=O)O; pS = N[C@@H](COP(=O)(O)O)C(=O)O; β3hS = N[C@@H](CO)CC(=O)O; Nva = CCC[C@H](N)C(=O)O; ξβ3hS = NC(CO)CC(=O)O; βAla = NCCC(=O)O
Kindly provide the numeric value in nM only, without the unit symbol.

Example entries begin here.
compound	unit.tag	value.observed
CCC[C@H](NC(=O)[C@H](N)CCCCN)C(=O)N[C@@H](Cc1ccc([N+](=O)[O-])cc1)C(=O)NC(Cc1cscn1)C(=O)N[C@@H](COP(=O)(O)O)C(=O)N[C@@H](Cc1ccc([N+](=O)[O-])cc1)C(=O)NC(CO)CC(=O)NCCC(=O)N[C@@H](Cc1ccc([N+](=O)[O-])cc1)C(=O)N[C@@H](CCCCN)C(N)=O (stereo partly drawn) [compound 1] (H-[dK][Nva][Phe(4-NO2)][ξAla(4-thiazolyl)][pS][Phe(4-NO2)][ξβ3hS][βAla][Phe(4-NO2)]K-NH2)	nM	71
CCC[C@H](NC(=O)[C@H](N)CCCCN)C(=O)N[C@@H](Cc1ccc([N+](=O)[O-])cc1)C(=O)NC(Cc1cscn1)C(=O)N[C@@H](COP(=O)(O)O)C(=O)N[C@@H](Cc1ccc(O)cc1)C(=O)N[C@@H](CO)CC(=O)NCCC(=O)N[C@@H](Cc1ccc([N+](=O)[O-])cc1)C(=O)N[C@@H](CCCCN)C(N)=O (stereo partly drawn) [4a] (H-[dK][Nva][Phe(4-NO2)][ξAla(4-thiazolyl)][pS]Y[β3hS][βAla][Phe(4-NO2)]K-NH2; N-terminus and C-terminus assumed)	nM	41

Pending compound:
Entry under test: CCC[C@H](NC(=O)[C@H](N)CCCCN)C(=O)N[C@@H](Cc1ccc([N+](=O)[O-])cc1)C(=O)NC(Cc1cscn1)C(=O)N[C@@H](COP(=O)(O)O)C(=O)N[C@@H](Cc1ccc([N+](=O)[O-])cc1)C(=O)N[C@@H](CO)CC(=O)NCCC(=O)N[C@@H](C)C(=O)N[C@@H](CCCCN)C(N)=O (stereo partly drawn) [5c] (H-[dK][Nva][Phe(4-NO2)][ξAla(4-thiazolyl)][pS][Phe(4-NO2)][β3hS][βAla]AK-NH2; N-terminus and C-terminus assumed) . Its Affinity Kd was 2200
